# tgt: Prostaglandin G/H synthase 2 (Homo sapiens, UniProt P35354)
# Sequence (P35354 whole entry): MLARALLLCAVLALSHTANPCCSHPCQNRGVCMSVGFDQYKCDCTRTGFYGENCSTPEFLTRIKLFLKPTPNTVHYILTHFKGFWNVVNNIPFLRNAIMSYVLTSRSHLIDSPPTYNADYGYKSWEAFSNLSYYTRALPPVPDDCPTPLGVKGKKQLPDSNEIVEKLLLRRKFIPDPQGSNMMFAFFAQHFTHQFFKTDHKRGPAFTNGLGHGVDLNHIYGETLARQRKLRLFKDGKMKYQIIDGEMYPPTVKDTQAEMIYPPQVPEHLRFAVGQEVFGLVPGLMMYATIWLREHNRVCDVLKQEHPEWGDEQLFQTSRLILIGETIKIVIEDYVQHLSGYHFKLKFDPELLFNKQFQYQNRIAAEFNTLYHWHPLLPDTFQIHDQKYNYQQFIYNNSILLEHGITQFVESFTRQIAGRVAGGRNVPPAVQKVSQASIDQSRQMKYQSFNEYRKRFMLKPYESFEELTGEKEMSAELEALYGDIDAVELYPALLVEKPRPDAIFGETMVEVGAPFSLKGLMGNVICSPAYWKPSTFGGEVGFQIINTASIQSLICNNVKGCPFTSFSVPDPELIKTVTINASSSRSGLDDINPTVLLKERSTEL
# protocolText: Inhibition of COX2 in human blood assessed as TxB2 level after 1 hr by enzyme immunoassay
quantityMeasured: IC50 (nM)

> print(dat)
                                   molecule                                       tgt  reportedresult
1  CCS(=O)(=O)c1nc(-c2ccc(F)cc2)c(-c2ccc(S(C)(=O)=O)cc2)[nH]1  Prostaglandin G/H synthase 2 (Homo sapiens, UniProt P35354)             310
2  CS(=O)(=O)c1ccc(-c2[nH]c(S(C)(=O)=O)nc2-c2ccccc2)cc1  Prostaglandin G/H synthase 2 (Homo sapiens, UniProt P35354)             280
3  CCSc1nc(-c2ccc(F)cc2)c(-c2ccc(S(C)(=O)=O)cc2)[nH]1  Prostaglandin G/H synthase 2 (Homo sapiens, UniProt P35354)              80

a = CSc1nc(-c2ccc(F)cc2)c(-c2ccc(S(C)(=O)=O)cc2)[nH]1
b = CCS(=O)(=O)c1nc(-c2ccc(Cl)cc2)c(-c2ccc(S(C)(=O)=O)cc2)[nH]1
Problem: Of a and b , whose reported IC50 is numerically smaller? Mark your answer with the label of the selected entry.
Result: a

====

# tgt: Prostaglandin G/H synthase 2 (Homo sapiens, UniProt P35354)
# protocolText: Inhibition of COX2 in human blood assessed as TxB2 level after 1 hr by enzyme immunoassay
pIC50: −log10 of the molar value.
quantityMeasured: pIC50

Example compounds with recorded pIC50:
> print(dat)
                                   molecule  reportedresult
1  CCSc1nc(-c2ccccc2)c(-c2ccc(S(C)(=O)=O)cc2)[nH]1            7.30
2  CCS(=O)(=O)c1nc(-c2ccccc2)c(-c2ccc(S(C)(=O)=O)cc2)[nH]1            6.62
3  CS(=O)(=O)c1ccc(-c2[nH]c(S(C)(=O)=O)nc2-c2ccc(Cl)cc2)cc1            6.51
4  CCSc1nc(-c2ccc(Cl)cc2)c(-c2ccc(S(C)(=O)=O)cc2)[nH]1            6.96

P = CSc1nc(-c2ccc(Cl)cc2)c(-c2ccc(S(C)(=O)=O)cc2)[nH]1
Q = CS(=O)(=O)c1ccc(-c2[nH]c(S(C)(=O)=O)nc2-c2ccc(F)cc2)cc1
R = CSc1nc(-c2ccccc2)c(-c2ccc(S(C)(=O)=O)cc2)[nH]1
Problem: Order the records so the highest pIC50 appears first and the lowest last. A complete answer lists every label in the requested sequence.
Result: R, P, Q

Values from ChEMBL document CHEMBL2346538
